system_under_test: UniProt:Q6TMY8
Sequence (Q6TMY8 114-258 limits assumed): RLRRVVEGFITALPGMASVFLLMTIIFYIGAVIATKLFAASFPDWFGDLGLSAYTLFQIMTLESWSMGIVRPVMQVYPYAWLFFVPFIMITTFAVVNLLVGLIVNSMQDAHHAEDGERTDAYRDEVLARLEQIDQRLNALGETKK
recorded_conditions: drug added to both sides of bilayer; 0.5 M NaCl, 10 mM HEPES, pH 7.4; room temperature; POPE:POPG 1:1
outcome_measure: IC50

The recorded IC50 for entry COC(=O)C1=C(C)NC(C)=C(C(=O)OC)C1c1ccccc1[N+](=O)[O-] equals 2950 nM
